target-entity: hCRTH2 receptor (Homo sapiens)
Construct: expressed in transfected cells; host or cells: HEK293
Sequence (Q9Y5Y4 1-395): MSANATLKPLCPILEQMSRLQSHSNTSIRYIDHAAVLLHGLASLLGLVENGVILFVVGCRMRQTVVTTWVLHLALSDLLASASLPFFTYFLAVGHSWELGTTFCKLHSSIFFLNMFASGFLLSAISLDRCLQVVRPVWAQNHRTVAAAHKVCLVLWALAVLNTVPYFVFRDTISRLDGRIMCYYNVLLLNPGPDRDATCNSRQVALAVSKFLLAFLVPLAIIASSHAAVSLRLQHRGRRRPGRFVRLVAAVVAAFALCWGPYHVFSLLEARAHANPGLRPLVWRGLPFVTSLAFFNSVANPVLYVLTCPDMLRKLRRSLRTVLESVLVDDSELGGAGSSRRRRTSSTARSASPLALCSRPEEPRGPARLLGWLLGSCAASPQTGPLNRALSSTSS
test-method-notes: Radioligand displacement assay (3H-PGD2) on hCRTH2 receptor membranes
Assay type: binding
experimental-setup: antagonistic activity; 3H-PGD2 displacement on HEK293-hCRTH2 membrane fragments
pIC50: −log10 of the molar value.
The compounds listed here are annotated with their pIC50.

# compound, target-entity, pIC50
rows = [
    ("O=C(O)COc1ccc(Cl)cc1[C@@H]1c2ccccc2CCN1C(=O)OCc1ccncn1", "hCRTH2 receptor (Homo sapiens)", 8.12),
    ("O=C(O)COc1ccc(F)cc1C1c2ccccc2CCN1C(=O)Cc1nc2ccccc2[nH]1 (racemic)", "hCRTH2 receptor (Homo sapiens)", 6.10),
    ("Cc1ccc(OCCC(=O)N2CCc3ccccc3C2c2cc(Cl)ccc2OCC(=O)O)cc1 (racemic)", "hCRTH2 receptor (Homo sapiens)", 6.83),
    ("Cc1cccc(COC(=O)N2CCc3ccccc3C2c2cc(Cl)ccc2OCC(=O)O)c1 (racemic)", "hCRTH2 receptor (Homo sapiens)", 7.75),
    ("O=C(O)COc1ccc(F)cc1C1c2cc(F)ccc2CCN1C(=O)OCc1ccccc1 (racemic)", "hCRTH2 receptor (Homo sapiens)", 7.61),
    ("C[C@H](Oc1ccc(F)cc1[C@@H]1c2ccccc2CCN1C(=O)OCc1ccccc1)C(=O)O", "hCRTH2 receptor (Homo sapiens)", 6.35),
    ("O=C(O)COc1ccc(Cl)cc1C1c2ccccc2CCN1C(=O)CCCc1cccc(Cl)c1Cl (racemic)", "hCRTH2 receptor (Homo sapiens)", 7.77),
    ("O=C(O)COc1ccc(Cl)cc1[C@@H]1c2ccccc2CCN1C(=O)OCc1ccccc1", "hCRTH2 receptor (Homo sapiens)", 8.34),
]

----------
This section presents compounds with their documented pIC50 values.
target-entity: hCRTH2 receptor (Homo sapiens)
Construct: expressed in transfected cells; host or cells: HEK293
Sequence (Q9Y5Y4 1-395): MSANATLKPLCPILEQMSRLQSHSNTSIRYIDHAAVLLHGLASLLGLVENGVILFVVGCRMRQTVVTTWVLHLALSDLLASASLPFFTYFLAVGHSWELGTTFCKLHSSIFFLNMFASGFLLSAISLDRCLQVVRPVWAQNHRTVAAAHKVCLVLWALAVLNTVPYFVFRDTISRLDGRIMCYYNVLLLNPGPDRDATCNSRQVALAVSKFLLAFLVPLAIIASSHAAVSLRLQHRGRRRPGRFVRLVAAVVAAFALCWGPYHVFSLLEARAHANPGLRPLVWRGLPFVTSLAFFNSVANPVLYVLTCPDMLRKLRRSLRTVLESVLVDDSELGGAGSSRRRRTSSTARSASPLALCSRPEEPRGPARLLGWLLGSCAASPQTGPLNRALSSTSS
test-method-notes: Radioligand displacement assay (3H-PGD2) on hCRTH2 receptor membranes
Format: binding
experimental-setup: antagonistic activity; 3H-PGD2 displacement on HEK293-hCRTH2 membrane fragments
Experimental: First, recombinant HEK293-hCRTH2 cells were detached from culture plates into 5 ml buffer A/plate (Buffer A: 5 mM Tris, 1 mM MgCl2-6H2O pH=7.4) using a rubber policeman. […] This assay mix was incubated for 90 minutes at room temperature and then filtered through a GF/C filter 96-well plate which was pre-soaked for 3 hours in 0.5% polyethyleneimine (PEI). […] Then, 40 μl of Microscint-40 (Packard) was added to each well and the retained radioactivity quantified in a Topcount (Packard).
pIC50: −log10 of the molar value.

# compound, target-entity, pIC50
measured = [
    ("O=C(O)COc1ccc(F)cc1C1c2ccccc2CCN1C(=O)COc1ccccc1F (racemic)", "hCRTH2 receptor (Homo sapiens)", 6.88),
    ("Cc1ccccc1OCCC(=O)N1CCc2ccccc2C1c1cc(F)ccc1OCC(=O)O (racemic)", "hCRTH2 receptor (Homo sapiens)", 7.24),
    ("Cc1cccc(OCCC(=O)N2CCc3ccccc3C2c2cc(Cl)ccc2OCC(=O)O)c1 (racemic)", "hCRTH2 receptor (Homo sapiens)", 7.79),
    ("O=C(O)COc1ccc(Cl)cc1C1c2ccccc2CCN1C(=O)OCc1cc(F)ccc1F (racemic)", "hCRTH2 receptor (Homo sapiens)", 8.12),
    ("O=C(O)COc1ccc(Cl)cc1C1c2ccccc2CN1C(=O)OCc1ccccc1 (racemic) [Example 230]", "hCRTH2 receptor (Homo sapiens)", 7.89),
    ("O=C(O)COc1ccc(F)cc1C1c2ccccc2CCN1C(=O)COCc1cccc(Cl)c1 (racemic)", "hCRTH2 receptor (Homo sapiens)", 7.77),
    ("COc1cccc(OC)c1COC(=O)N1CCc2ccccc2C1c1cc(Cl)ccc1OCC(=O)O (racemic)", "hCRTH2 receptor (Homo sapiens)", 8.12),
]
